Source listed as PubChem BioAssay (NCI).

Entries and their growth inhibition
# Protocol Description: NCI Yeast Anticancer Drug Screen. Data for the bub3 strain (AID 167)
# Condition Label: S. cerevisiae bub3 mutant strain, at 50.0 µM, stronger effect = higher value
The panel holds about 79,000 compounds, 15% with a hit somewhere; the sample as a whole holds those more often. Active and inactive are the calls of the source. Rule as the data show it: active = growth inhibition above about 70%; inactive = the rest.

Solved entries (count: 2):
                                   compound             metric       result_value
0   CC(CCOCC1CO1)OCC1CO1 (stereo not drawn)  growth inhibition  -17.5% (inactive)
1  COC(=O)c1nc(N)nc(C(=O)OC)c1C(=O)c1ccc([N+](=O)[O-])cc1  growth inhibition  -44.8% (inactive)

Memo: C/C=C1\CN2CCc3c([nH]c4ccccc34)C2CC1CCO (stereo not drawn) , reported growth inhibition: -26.7% (inactive)

Memo: `Cc1ccc2cccnc2c1` , reported growth inhibition: 2.85% (inactive)

Memo: CCCCCCCCN1N=CC(CC)C1CCC (stereo not drawn) , reported growth inhibition: -0.8% (inactive)

Memo: `Clc1ccc(N=Nc2ccccc2)cc1` , reported growth inhibition: 1.7% (inactive)

Memo: O=C1NC(N2CCCC(CO)C2)=N/C1=C\c1ccc(O)cc1 (stereo not drawn) , reported growth inhibition: -9.6% (inactive)

Memo: `O=C(/C=C/c1ccco1)c1ccc(O)c(C(=O)O)c1` , reported growth inhibition: -26.6% (inactive)

Memo: `C=CCNC(=S)Nc1cc(Cl)ccc1OC` , reported growth inhibition: 1.2% (inactive)

Memo: Nc1cn(C2CC(O)C(CO)O2)c(=O)[nH]c1=O (stereo not drawn) , reported growth inhibition: -4.4% (inactive)

Memo: `CN1CCC(c2ccccc2)(c2ccccc2)OC1` , reported growth inhibition: 9.95% (inactive)

Memo: `CCCOc1ccc(C(N)=S)c2ccccc12` , reported growth inhibition: 20.2% (inactive)

Memo: `C[N+](C)(C)/N=C(/c1ccccc1)C1CCCCC1` , reported growth inhibition: 0.4% (inactive)

---

# Protocol Description: NCI Yeast Anticancer Drug Screen. Data for the sgs1 mgt1 strain (AID 161);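 also: 0% = growth of cultures given vehicle only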
# Condition Label: S. cerevisiae sgs1 mgt1 strain, at 50.0 µM, stronger effect = higher value
Compounds without any hit were thinned out: in the full panel of roughly 79,000, 15% have a hit.
Metric: growth inhibition (%)
Give the quantity in %, number only.

Solved entries (count: 8):
>>> df
                                   compound             metric  result_value
0  O=S1(=O)CC(N2CCOCC2)C2=C(O1)c1sc(-c3ccccc3)nc1CC2 (stereo unspecified)  growth inhibition          14.8
1             C=CCCCCCCCCC(=O)N(CC#N)CC(C)C  growth inhibition          91.5
2  COc1cc(C)c(O)c(C/C=C(\C)CC2=C[C@@]3(C)CCC[C@@]3(C)[C@]3(CC(O)C(C)(C)O3)O2)c1 (stereo partly specified)  growth inhibition          -8.5
3  N#Cc1cn(C2OC(CO)C3OC32)c2ncnc(NC(=O)c3ccccc3)c12 (stereo unspecified)  growth inhibition          14.7
4  O=C1Oc2cc3c(c4cccc1c24)O[C@H](c1ccccc1)[C@@H](c1ccccc1)[C@@H]3c1ccc(Cl)cc1  growth inhibition          -2.4
5     CC1CC(C)NC(=O)N1 (stereo unspecified)  growth inhibition         -13.9
6          CN1C(=O)C(=O)n2c(cc3ccccc32)C1=O  growth inhibition          7.25
7  CN(c1ccc(C(=O)c2ccc(N(C)S(C)(=O)=O)cc2)cc1)S(C)(=O)=O  growth inhibition         -8.05

Memo: `NC(=O)CC[n+]1ccc(C(=O)O)cc1` , reported growth inhibition: -6.1

Memo: CCCCON1C[C@@H](O)C(O)[C@@H](O)C1 (stereo partly specified) , reported growth inhibition: -37.9

Memo: `Cc1ccc(-c2cc(-c3ccco3)nc(N)n2)o1` , reported growth inhibition: 10.6

---

Entries and their growth inhibition
# Protocol Description: NCI Yeast Anticancer Drug Screen. Data for the rad50 strain (AID 155);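 also: 0% = growth of vehicle-only cultures of the same strain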
# Condition Label: S. cerevisiae rad50 strain growth inhibition; at 50.0 µM; stronger effect = higher value
This is part of a sample that, as a whole, favours compounds with a hit. Of some 79,000 tested, about 15% had one in any assay.
Give the quantity in %, number only.

Memo: `CNc1ncnc2n[nH]nc12` , reported growth inhibition: -10.7

Memo: `COc1c(C)c2c(c(Br)c1N)COCO2` , reported growth inhibition: 3.75

Memo: N#CC1C=CN(Cc2ccccc2)C=C1C(=O)c1ccccc1 (configuration not stated) , reported growth inhibition: -1.5

Memo: NC1CSc2ccccc2NC1=O (configuration not stated) , reported growth inhibition: 20.5

Memo: CCC(SC(C)=O)C(=O)O (configuration not stated) , reported growth inhibition: 13

Memo: BrC1CCC(Br)C(Br)CCC1Br (configuration not stated) , reported growth inhibition: 46.5

Memo: CC(=O)OCC1OC(n2cnc([N+](=O)[O-])c2C#N)C(OC(C)=O)C1OC(C)=O (configuration not stated) , reported growth inhibition: 28.6

---

# Protocol Description: NCI Yeast Anticancer Drug Screen. Data for the mec2-1 strain (AID 157)
# Condition Label: S. cerevisiae mec2-1 strain, at 50.0 µM, stronger effect = higher value
# Protocol: Growth inhibition of yeast strains with defined genetic alterations is measured as a screen for potential anti-cancer activity. Selected strains with alterations in DNA damage repair or cell cycle control were exposed to compounds and growth inhibition was measured relative to vehicle treated controls. The strain used in this assay is mec2-1
The panel holds about 79,000 compounds, 15% with a hit somewhere; the sample as a whole holds those more often.
Label Met when growth inhibition is at or above -20%; anything below gets Not met.

Past entries and their recorded results:
In [3]: df
Out[3]:
                                   molecule  assigned_label
0              Fc1nc2nc(C(F)(F)F)[nH]c2nc1F             Met
1             COc1ccc([N+](=O)[O-])c(C#N)c1             Met
2        Cc1cc(Br)c2c(c1N)C(=O)c1ccccc1C2=O             Met
3  CC(O)(C(=O)O)C(NC(=O)c1ccccc1)C(=O)O (stereo unspecified)             Met
4               C[C@H](N)C(=O)/C=C/c1ccccc1         Not met

Next molecule, please.
Kindly determine if growth inhibition recorded for `O=C(NCCCCCCNC(=O)c1cc(-c2ccccc2)nc2ccccc12)c1cc(-c2ccccc2)nc2ccccc12` is above or exactly -20%.
Met

---

# Protocol Description: NCI Yeast Anticancer Drug Screen. Data for the mec2-1 strain (AID 157)
# Condition Label: S. cerevisiae mec2-1 strain, at 50.0 µM, stronger effect = higher value
# Procedure: Growth inhibition of yeast strains with defined genetic alterations is measured as a screen for potential anti-cancer activity. Selected strains with alterations in DNA damage repair or cell cycle control were exposed to compounds and growth inhibition was measured relative to vehicle treated controls. The strain used in this assay is mec2-1
The panel holds about 79,000 compounds, 15% with a hit somewhere; the sample as a whole holds those more often. Where a SMILES comes first, the peptide text is derived from it. [ ]: non-standard residue; d: D form. Ac5c = NC1(C(=O)O)CCCC1
Metric: growth inhibition (%)
Give the quantity in %, number only.

>>> print(df.to_string())
                                   compound             metric  u  result_value
0  O=C1c2ccccc2CCC12OC2c1ccncc1 (stereo unspecified)  growth inhibition  %          27.1
1  NC1(C(=O)NC2(C(=O)O)CCCC2)CCCC1 (H-[Ac5c]-[Ac5c]-OH)  growth inhibition  %          2.85
2              CCCCNC(=S)N/N=C/c1ccc(OC)cc1  growth inhibition  %          1.55
3                      Cc1nc(N)nc2c1ncn2CCO  growth inhibition  %          16.1
4          Cc1cccc(NC(=O)COc2ccc(Cl)cc2C)c1  growth inhibition  %           4.4

Alright, here's another compound for you.
Memo: Cc1ccc(NC(=O)CC2C(=O)Nc3ccccc3S2=O)c(C)c1 (stereo unspecified) , reported growth inhibition: -24.9

---

# Protocol Description: NCI Yeast Anticancer Drug Screen. Data for the rad50 strain (AID 155);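 also: 0% = growth of vehicle-only cultures of the same strain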
# Condition Label: S. cerevisiae rad50 strain growth inhibition; at 50.0 µM; stronger effect = higher value
Compounds without any hit were thinned out: in the full panel of roughly 79,000, 15% have a hit.
Entries and their growth inhibition
Give the quantity in %, number only.

Solved entries (count: 8):
>>> df
                                   compound             metric  u  result_value
0              CC(=O)Nc1cc(C)c(C)cc1NC(C)=O  growth inhibition  %         -23.9
1      NC(=O)CCCC(C(N)=O)(c1ccccc1)c1ccccc1  growth inhibition  %           9.2
2  CNC(=O)/C=C/C1=CN2C(=O)c3ccc(C)c(O)c3NC(OC)C2C1 (stereo unspecified)  growth inhibition  %          91.5
3  COc1ccc(C(=O)CC(Sc2ccccc2N)c2ccc(OC)cc2)cc1 (stereo unspecified)  growth inhibition  %         -16.6
4  CC1(C)CCC2(CO)C(=C3C=CC4C5(C)CCC(O)C(C)(CO)C5CCC4(C)C3(C)CC2O)C1 (stereo unspecified)  growth inhibition  %          0.45
5  CCN(Cc1cc(Nc2ccnc3cc(Cl)ccc23)ccc1O)C(=O)N1CCN(C)CC1  growth inhibition  %          10.7
6                O=C(NCCCl)NCc1cccc2c1CCCC2  growth inhibition  %         -12.5
7  CC1CN(C(=S)Nc2ccccc2)CCN1C(=S)Nc1ccccc1 (stereo unspecified)  growth inhibition  %            -9

Memo: C[C@]12CCC(=O)CC1CCCC2=O (stereo partly specified) , reported growth inhibition: 9.9

Memo: `NS(=O)(=O)c1cc2c(cc1Cl)NC(C(=O)NNC(=O)c1ccncc1)=NS2(=O)=O` , reported growth inhibition: -1.6

Memo: `O=c1oc2ccc3ccccc3c2c2c1CCCCC2` , reported growth inhibition: -13.9
